Target: full length (mature) human TSLP, recombinant (human, UniProt Q969D9 29-159, biotinylated in the SPR assay on the SA chip)
Test: cell-based or functional assay
measure_name: pSTAT5 assay in SW756 cells, Geometric Mean IC50 (nM)
Numbers only, in nM.

Field: example entries. Status: answers known.
binder	test_result
DOM30h-440-60 (other) VL: DIQMTQSPSSLSASVGDRVTITCRASRPIRNWLDWYQQKPGKAPKLLIWGASHLQSGVPSRFSGSGSGTDFTLTISSLQPEDFATYYCIQFGEDPVTFGQGTKVEIKR	0.7
DOM30h-440-54 (other) VL: DIQMTQSPSSLSASVGDRVTITCRASRPIRNWLDWYQQKPGKAPKLLIWGASHLQSGVPSRFSGSGSGTDFTLTISSLQPEDFATYYCWQLAFDPTTFGQGTKVEIKR	1.52

Quick batch: pSTAT5 assay in SW756 cells, Geometric Mean IC50 for everything below.
1. DOM30h-440-55 (other) VL: DIQMTQSPSSLSASVGDRVTITCRASRPIRNWLDWYQQKPGKAPKLLIWGASHLQSGVPSRFSGSGSGTDFTLTISSLQPEDFATYYCVQIGEDPVTFGQGTKVEIKR
2. DOM30h-440-58 (other) VL: DIQMTQSPSSLSASVGDRVTITCRASRPIRNWLDWYQQKPGKAPKLLIWGASHLQSGVPSRFSGSGSGTDFTLTISSLQPEDFATYYCLQIADDPVTFGQGTKVEIKR
3. DOM30h-440-65 (other) VL: DIQMTQSPSSLSASVGDRVTITCRASRPIRNWLDWYQQKPGKAPKLLIWGASHLQSGVPSRFSGSGSGTDFTLTISSLQPEDFATYYCMQIGEDPVTFGQGTKVEIKR

1: 1.1; 2: 1.91; 3: 0.78

The reported measurements were obtained from patent US20170260266A1.
